# Test system: Plasmodium berghei
# ASSAY PROCEDURE: Screen against P. berghei liver stage (PbLuc), transformed with Luciferase, at 10uM
# Type: functional, HepG2
# EXPERIMENTAL CONTEXT: tested at 10 uM
The campaign covered roughly 69,000 compounds. About 8,600 (12%) showed an effect of 50% or more. Shown is part of a subset that was picked to be rich in strong results.
For each record, check the reported INHIBITION: if it is below 40% write TRUE, else write FALSE.

A record lists COCCS(=O)(=O)Cc1csc(NC(C)=O)n1 . Is its INHIBITION below 40%? TRUE

A record lists CN1CC2(CCCN(Cc3cccc(Oc4ccccc4)c3)C2)OC1=O (configuration not stated) . Is its INHIBITION below 40%? FALSE

A record lists CN(C)C(=O)COc1ccccc1CN1CCOC2(CCCC2)C1 . Is its INHIBITION below 40%? TRUE

A record lists Cc1nc(CNc2ccccc2CCC(F)(F)F)cs1 . Is its INHIBITION below 40%? TRUE

A record lists COCCN1C(=O)[C@@H]2CC[C@H]1CN(Cc1nnc(C3CC3)o1)C2 . Is its INHIBITION below 40%? TRUE

A record lists Oc1cc(C2CCCCN2C2CCCC2)nc(-c2ccncc2)n1 (configuration not stated) . Is its INHIBITION below 40%? TRUE

A record lists CC(=O)Nc1nc(CNc2ccccc2CCC(F)(F)F)cs1 . Is its INHIBITION below 40%? FALSE

A record lists CCOC(C)c1nc(CNc2cccc(Cl)c2OC)cs1 (configuration not stated) . Is its INHIBITION below 40%? TRUE

A record lists CS(=O)(=O)N1CC[C@H]2[C@H](C[C@@H](Cn3cncn3)N2CC2CC2)C1 . Is its INHIBITION below 40%? TRUE

A record lists CC(=O)Nc1nc(CS(=O)(=O)Cc2ccccc2)cs1 . Is its INHIBITION below 40%? FALSE

A record lists CN1CC2(CCCN(Cc3ccc(Oc4ccccc4)cc3)C2)OC1=O (configuration not stated) . Is its INHIBITION below 40%? FALSE

A record lists COCc1csc(NC(=O)NCc2ccccn2)n1 . Is its INHIBITION below 40%? TRUE

* * *

# Test system: Plasmodium berghei
# ASSAY PROCEDURE: Screen against P. berghei liver stage (PbLuc), transformed with Luciferase, at 10uM
# Type: functional, HepG2
# EXPERIMENTAL CONTEXT: tested at 10 uM
In all, about 69,000 compounds went through this assay and about 8,600 (12%) showed an effect of 50% or more. The sample as a whole holds a higher share of strong results than the screen did.
ENDPOINT LABEL: INHIBITION (%)
Please give a number only; it is taken to be in %.

Recorded INHIBITION for O=C1COc2ccc(S(=O)(=O)NCCC3=CCCCC3)cc2N1 , please? -13.6

Recorded INHIBITION for CC1(c2nccs2)CCN(C(=O)CC2CCOCC2)CC1 , please? -1.25

Recorded INHIBITION for Fc1cnc(N2CCO[C@H]3CN(CC4CCC4)C[C@H]32)nc1 , please? 12.2

Recorded INHIBITION for O=C(NCc1ccco1)[C@@H]1CCO[C@@H]2CCN(c3ncccn3)C[C@H]21 , please? 17.1

Recorded INHIBITION for Cc1ccc(C(=O)Nc2ccc(N3CCCC3)cn2)cc1F , please? -6.12

Recorded INHIBITION for COC(=O)C(NC(=O)c1cc(F)cc(F)c1)c1cccnc1 (centres undefined) , please? 55.4

Recorded INHIBITION for Cc1cc(C(N)=O)ccc1NC(=O)c1nc(N2CCCC2)ncc1Cl , please? 20.1

Recorded INHIBITION for CN(C)c1cncc(C2CCN(CC3(O)CCCCC3)CC2)n1 , please? 37.6

Recorded INHIBITION for Cc1ccc(C(=O)Nc2cc(C(N)=O)ccc2N2CCCCC2)cc1F , please? 69.3

Recorded INHIBITION for Cc1ccc2nc(CN(C)Cc3[nH]nc4c3CCC4)[nH]c2c1C , please? -59.5

Recorded INHIBITION for O=C([C@@H]1COC[C@H]2CN(c3ccncn3)C[C@H]21)N1CCCC1 , please? -10.3

Recorded INHIBITION for Cc1cc(NC(=O)N2CCCC2C(=O)NC2CC2)c2ncccc2c1 (centres undefined) , please? 22.6

Recorded INHIBITION for CSCCN1C(=O)CC(C)(c2ccc(Br)cc2)C1=O (centres undefined) , please? 42.1

Recorded INHIBITION for COC(=O)C(NC(=O)c1ccc(C)cc1C)c1cccnc1 (centres undefined) , please? 42.4

Recorded INHIBITION for CC(C)n1[nH]c(=O)c2c1NC(=O)CC2c1cccc2cccnc12 (centres undefined) , please? -62.3

Recorded INHIBITION for CCc1c(C(=O)N2C[C@@H]3CC[C@H]2CN(c2cnccn2)C3)csc1C , please? -59.5

Recorded INHIBITION for CC1CCN(S(=O)(=O)N2CCc3sccc3C2)CC1 , please? 19.7

Recorded INHIBITION for CC(C)Cc1noc(CN(C)c2ncccn2)n1 , please? -33.3

Recorded INHIBITION for CNc1cc(N2CCCC2CNCc2csc(C)n2)ncn1 (centres undefined) , please? 29.425

Recorded INHIBITION for CC(=O)N1CCCC2(CN(Cc3ccc(F)cc3)CCO2)C1 (centres undefined) , please? -0.813

Recorded INHIBITION for Cc1cc(C(=O)NCc2cccs2)nc(N2CCCC2)n1 , please? -2.28

Recorded INHIBITION for CC1(c2ccc(Br)cc2)CC(=O)N(CC(N)=O)C1=O (centres undefined) , please? 51.8

Recorded INHIBITION for O=C(O)c1cn(-c2ccccn2)c(=O)c2ccccc12 , please? -44.2

Recorded INHIBITION for COc1ccccc1CC(=O)NC1CCCc2cn[nH]c21 (centres undefined) , please? 8.31

* * *

# Tested on: Plasmodium berghei
# ASSAY PROCEDURE: Screen against P. berghei liver stage (PbLuc), transformed with Luciferase, at 10uM
# Type: functional, HepG2
# EXPERIMENTAL CONTEXT: tested at 10 uM
Screen size: about 69,000 compounds; about 8,600 (12%) showed an effect of 50% or more. The sample as a whole holds a higher share of strong results than the screen did.
ENDPOINT LABEL: INHIBITION (%)
Please give a number only; it is taken to be in %.

Recorded INHIBITION for Cc1cnc(C(=O)N(C)[C@@H]2CCC[C@@H](Oc3ccccc3)[C@@H]2O)cn1 , please? 17.1

Recorded INHIBITION for CN(C)c1nc2c(c(=O)[nH]1)CCN(C(=O)c1ccc(=O)[nH]c1)C2 , please? 4.1

Recorded INHIBITION for CN(C(=O)c1ccn(C)n1)[C@@H]1CCC[C@@H](Oc2ccccc2)[C@@H]1O , please? 35.2

Recorded INHIBITION for O=c1[nH]c(-c2cccnc2)nc2c1CCN(S(=O)(=O)N1CCCC1)C2 , please? 23.6

Recorded INHIBITION for CN(C)c1nc2c(c(=O)[nH]1)CCN(C(=O)C1CCCO1)C2 (stereo not given) , please? 6.26

Recorded INHIBITION for CN(C(=O)c1cn(C)cn1)[C@@H]1CCC[C@@H](Oc2ccccc2)[C@@H]1O , please? 60.5

Recorded INHIBITION for Cc1cccc(N2CC[C@@H]3CN(C(=O)c4ccco4)CCO[C@@H]3C2)n1 , please? 49.5

Recorded INHIBITION for CCN(Cc1cnn(C)c1)C[C@H]1CC[C@@H](Cc2cccc(C#N)c2)O1 , please? -15.7

Recorded INHIBITION for CC(C)N(C)Cc1cnc2n1CCN(CCc1ccccc1)C2 , please? 8.47

Recorded INHIBITION for O=C(c1ccc(=O)[nH]c1)N1CCc2c(nc(-c3cccnc3)[nH]c2=O)C1 , please? 61.8

* * *

# Test system: Plasmodium berghei
# ASSAY PROCEDURE: Screen against P. berghei liver stage (PbLuc), transformed with Luciferase, at 10uM
# Assay type: functional, HepG2
# EXPERIMENTAL CONTEXT: tested at 10 uM
About 8,600 (12%) of roughly 69,000 compounds showed an effect of 50% or more. The sample holds strong results, similar compounds and a random draw of the others, so the mix is not that of the screen.
ENDPOINT LABEL: INHIBITION (%)
Please give a number only; it is taken to be in %.

Recorded INHIBITION for CCc1cnc2c(c1Nc1ccncc1)c(=O)n(C)c(=O)n2C , please? 27.6

Recorded INHIBITION for CCc1cnc2c(c1NCc1cccc(OC)c1)c(=O)n(C)c(=O)n2C , please? 55.3

Recorded INHIBITION for CS(=O)(=O)N1CC[C@]2(C[C@H](Oc3ccccn3)CO2)C1 , please? -23.4

Recorded INHIBITION for CC(C)c1nc(CNc2nccc(CCC(F)(F)F)n2)cs1 , please? 16.2

Recorded INHIBITION for CCc1nc(C(=O)N(C)CC(=O)N(C)C)nn1-c1ccccc1Cl , please? 27.9

Recorded INHIBITION for COCCc1noc(CN2CCCC(Cn3cncn3)C2)n1 (stereo unspecified) , please? -0.96
